Provenance of the data: patent US20260028418A1

What absorbance was measured for each of the following?
# TARGET UNDER TEST: T1, HER2-ECD-Fc (human, UniProt P04626 23-652)
# T1 construct: extracellular domain; Produced in FreeStyle 293F cells; also called HER2-ECD Fc fusion protein
# ASSAY PROTOCOL: ELISA on HER2-ECD-Fc; antibody at 5 × 10^-6 µg/mL
Kindly provide the number alone.

Challenge: Param item = 24D3 (antibody, V domains shown) VH: EVKLVESGGGLVKPGGSLKLSCAASGFTFSSCAMSWVRQTPEKRLEWVATISGGGSYTYYPDSVKGRFTISRDNAKNTLYLQMSSLRSEDTAMYYCARHGGYESWFPYWGQGTLVTVSA VL: DIVMTQSPLSLPVSLGDQASISCRSSQSLVHSNGNTYLHWYLQKPGQSPKLLIYKVSNRFSGVPDRFSGSGSGTDFTLKISRVEAEDLGVYFCSQSTHVPPWTFGGGTKLEIK ; retrieve measured absorbance.
Response given: 0.11

Challenge: // same read-out, input: 1G3 (antibody, V domains shown) VH: EVQLQQSGAELVKPGASVKLSCTASDFNIVDTYMHWVKQRPEQGLEWIGRIDPANGYTRYDPNFQGKATITADTSSNTAYLQLSSLTSEDTAVYYCARYYYGFYAMDYWGQGTTVTVSS VL: DIVMTQSHKFMSTSVGDRVSITCKASQDVSTAVAWYQQKPGQSPKLLIYSASYRYTGVPDRFTGSGSGTDFTFTISSVQAEDLAVYYCQQHYSTPPTFGGGTKLELK
Response given: 0.11

Challenge: // same read-out, input: hz8G11 (antibody, V domains shown, Humanized antibody, detected with anti-human IgG-HRP; also called humanized 8G11 antibody) VH: QVQLVQSGQEVKKPGASVKVSCKASGYSFTGYYMHWVRQAPGQGLEWIGHINPNNGGTSYNQKFKGRTTLTVDKSISTAYMELSRLRSDDTAVYYCAREEAFAYWGQGTLVTVSS VL: DIQMTQSPSSLSASVGDRVTISCRASQDISNYLNWYQQKPGKAPKLLIYYTSRLHSGVPSRFSGSGSGTDFSLTISSLQPEDIATYYCQQGITPPWTFGGGTKVEIK
Response given: 0.12

Challenge: // same read-out, input: hz2G10 (antibody, V domains shown, Humanized antibody, detected with anti-human IgG-HRP; Only the variable domains are tied to the name; also called humanized 2G10 antibody) VH: EVQLVESGGGLVQPGGSLRLSCAASGFTFSDYYMYWVRQAPGKGLEWVAYINSGGGSTYYPDTVKGRFTISRDNAKNSLYLQMNSLRAEDTAVYYCAREALYDYDYAMDYWGQGTTVTVSS VL: DIVMTQSPLSLSVTPGQPASISCKSSQSLLYSNGKTYLNWLLQKPGQSPQRLIYLVSKLDSGVPDRFSGSGSGTDFTLKISRVEAEDVGVYYCVQGTHFPLTFGGGTKVEIK
Response given: 0.12
